tested on: Escherichia coli; assay: Bactericidal activity against Escherichia coli ATCC 25922 incubated for 4 hrs followed by culture spread on agar plates and cultured overnight in presence of 0.125 mg/ml trypsin; format: functional; conditions: ATCC 25922, 4 h, read-out: MBC>99.9
RESULT_TYPE: MBC (µM)
Numbers only, in µM.

Example results:
>>> print(df.to_string())
                            substance  target_under_test  meas_value
0  H-LRPLLRPLLRPLLRPLLRPLLRPLLRPL-NH2   Escherichia coli           2
1  H-IKPIIKPIIKPIIKPIIKPIIKPIIKPI-NH2   Escherichia coli          16
2  H-IRPIIRPIIRPIIRPIIRPIIRPIIRPI-NH2   Escherichia coli           2

We next turn to a different substance, shown below.
Task: What MBC value was documented for this substance, `H-LKPLLKPLLKPLLKPLLKPLLKPLLKPL-NH2` ?
Result: 1
